These entries and their values trace back to ChEMBL document CHEMBL1287734.

- Test system: MCF7
- assay method text: Antiproliferative activity against human MCF7 cells after 48 hrs by MTT assay
- Assay type: functional, cell-based
- condition notes: MCF7, 48 h
result type: IC50 (µM)
Give bare numbers, in µM.

>  <smi>
N=C(N)N/N=C(/C=C/c1cccc([N+](=O)[O-])c1)c1ccccc1

>  <IC50, µM>
6.5

$$$$

Give one value of IC50 per listed compound.
1. COc1ccc(C(/C=C/c2ccccc2)=N\NC(=N)N)cc1
2. COc1cccc(/C=C/C(=N/NC(=N)N)c2ccccc2)c1
3. Cc1ccc(C(/C=C/c2ccccc2)=N\NC(=N)N)cc1
4. N=C(N)N/N=C(/C=C/c1ccccc1Br)c1ccccc1
5. N=C(N)N/N=C(/C=C/c1ccc(Cl)cc1)c1ccccc1
6. N=C(N)N/N=C(/C=C/c1ccc(OCc2ccccc2)cc1)c1ccccc1
7. N=C(N)N/N=C(/C=C/c1ccccc1)c1ccc(Cl)c(Cl)c1

Output line:
1: 13; 2: 13; 3: 14; 4: 4.2; 5: 0.7; 6: 1.2; 7: 1.9
